Origin of the recorded values: ChEMBL document CHEMBL2407003

targetUnderTest: Nitric oxide synthase 3 (Bos taurus, UniProt P29473)
Sequence (P29473 whole entry): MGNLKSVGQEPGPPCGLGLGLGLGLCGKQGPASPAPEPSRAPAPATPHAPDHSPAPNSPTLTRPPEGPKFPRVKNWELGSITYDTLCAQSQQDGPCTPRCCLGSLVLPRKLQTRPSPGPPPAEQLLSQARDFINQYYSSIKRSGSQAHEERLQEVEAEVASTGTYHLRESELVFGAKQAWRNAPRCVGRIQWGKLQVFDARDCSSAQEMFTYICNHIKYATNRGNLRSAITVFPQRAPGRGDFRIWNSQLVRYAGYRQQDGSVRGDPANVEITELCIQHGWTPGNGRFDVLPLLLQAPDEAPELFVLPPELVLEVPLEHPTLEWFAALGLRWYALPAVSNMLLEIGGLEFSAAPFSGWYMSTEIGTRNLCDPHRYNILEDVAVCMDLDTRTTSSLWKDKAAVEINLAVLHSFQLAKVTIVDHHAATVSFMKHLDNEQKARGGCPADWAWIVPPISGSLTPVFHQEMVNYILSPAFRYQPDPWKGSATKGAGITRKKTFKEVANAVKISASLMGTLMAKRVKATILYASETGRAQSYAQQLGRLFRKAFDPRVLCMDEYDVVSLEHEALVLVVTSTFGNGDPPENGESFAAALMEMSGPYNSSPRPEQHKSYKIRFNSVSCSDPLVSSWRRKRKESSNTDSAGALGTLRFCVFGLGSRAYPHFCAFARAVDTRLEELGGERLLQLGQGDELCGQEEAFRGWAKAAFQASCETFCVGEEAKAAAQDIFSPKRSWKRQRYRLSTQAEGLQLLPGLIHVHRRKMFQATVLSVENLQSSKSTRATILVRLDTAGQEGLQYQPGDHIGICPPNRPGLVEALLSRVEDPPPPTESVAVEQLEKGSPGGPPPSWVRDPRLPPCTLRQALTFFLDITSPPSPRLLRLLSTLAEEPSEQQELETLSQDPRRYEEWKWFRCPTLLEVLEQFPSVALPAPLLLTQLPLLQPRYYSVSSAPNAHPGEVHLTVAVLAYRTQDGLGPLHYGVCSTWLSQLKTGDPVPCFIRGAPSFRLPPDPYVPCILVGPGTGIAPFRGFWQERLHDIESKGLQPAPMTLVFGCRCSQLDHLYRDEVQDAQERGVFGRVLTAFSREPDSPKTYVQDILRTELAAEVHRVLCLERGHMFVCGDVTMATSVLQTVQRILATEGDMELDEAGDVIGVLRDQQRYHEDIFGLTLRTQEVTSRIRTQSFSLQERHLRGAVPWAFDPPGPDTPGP
test: Activation of eNOS in BCAEC assessed as increase in nitric oxide level after 10 mins by fluorometric analysis
pEC50: −log10 of the molar value.
measuredParameter: pEC50

molecule	measuredParameter	numericResult
CCOc1cc([C@H]2Oc3cc(O)cc(O)c3C[C@H]2O)ccc1O	pEC50	9.00

P: CC(=O)Oc1cc(OC(C)=O)c2c(c1)O[C@H](c1ccc(OC(C)=O)c(OC(C)=O)c1)[C@H](OC(C)=O)C2 [EPICATECHIN PENTAACETATE]
Q: Oc1cc(O)c2c(c1)O[C@H](c1ccc(O)c(O)c1)[C@H](O)C2 [(-)-EPICATECHIN]
Which record would sort first by descending pEC50, P or Q ? Give the chosen item's label as your response.
P
(P: 11.22, Q: 8.70)
